# Test system: OVCAR-8
# procedure.text: NCI tumour cell line growth inhibition, 48 h
Active and inactive are the calls of the source. Cut-off read from the data, not from the text of the source: active = GI50 up to about 1.1 µM and inactive = higher.
Write down one outcome, taken from yes (active), no (inactive)

Example cases with answers are listed next.
1. O=C(NCCCl)SCCO :: no
2. Cc1ccc(C(=O)NC2CCCCC2)cc1/N=N/N(C)C :: no
3. Cc1n(Cc2ccccc2)c2c([n+]1C)C(=O)c1ccccc1C2=O :: yes

Query: State the result this test recorded for Clc1ncnc2c1nc(C#Cc1ccccc1)n2C1CCCCO1 (stereo unspecified) .
Result: no

Query: Can you handle "Cn1c(=O)nc2n(-c3ccc(Cl)cc3)c3cc(Cl)ccc3nc-2c1=O" next?
Result: no

Query: Can you handle "CCN(CC)c1c(C(=O)/C=C/c2ccccc2)c(-c2ccccc2)nn(C)c1=O" next?
Result: no

----------
For each entry below, report its GI50 value.
# Test system: SNB-19
# procedure.text: NCI tumour cell line growth inhibition, 48 h
Active and inactive are the calls of the source. Cut-off read from the data, not from the text of the source: active = GI50 up to about 1.1 µM and inactive = higher.

The examples below pair each entry with its known result.
1. C=CCCN1CCc2c([nH]c3ccccc23)C1C(=O)O (stereo not drawn) :: > 100 µM (inactive)
2. CCOC(=O)C(=O)Nc1ccccc1OCC :: > 100 µM (inactive)

Below are some compounds; for each one, tell me its GI50.
1. O=C1C=CC2(O[C@H](C3CCCCC3)[C@@H](C3CCCCC3)O2)C(SC(=O)c2ccccc2)C1 (stereo partly drawn)
2. O=C1c2ccccc2NC(=O)C2C1C(c1ccccc1)CC2(O)c1ccccc1 (stereo not drawn)
3. C[C@]12OC(=O)[C@]3(O)CC[C@H]4[C@@H](C[C@@H](O)[C@@]5(Cl)CC=CC(=O)[C@]45C)[C@]45OCC6C(=O)O[C@@H]1C[C@@]6(C)[C@H](C4=O)[C@@]32O5 (stereo partly drawn)

Result:
1: 1.44 µM (inactive); 2: 35.2 µM (inactive); 3: 5.73 µM (inactive)

Below are some compounds; for each one, tell me its GI50.
1. Cc1cc(=O)n2c3c(c4c(cc13)c(CN(C)C)cc(=O)n4C)OC2
2. COc1cc(Br)c(CC2C3=C(CCN2C(=O)C2CCC2)CC2(CC3)OCCO2)cc1O (stereo not drawn)
3. O=c1[nH]ccc(CNC23CC4CC(CC(C4)C2)C3)c1O

Result:
15.8 µM (inactive)
> 100 µM (inactive)
> 100 µM (inactive)

----------
# System: CCRF-CEM
# procedure.text: NCI tumour cell line growth inhibition, 48 h
Calls of active or inactive are those of the source. Rule as the data show it: active = GI50 up to about 1.1 µM and inactive = higher.
For each entry below, report its GI50 value.

The examples below pair each entry with its known result.
1. C[C@]12CCC(=O)C=C1CC[C@@H]1C2CC[C@]2(C)Nc3c(cnn3-c3ccccc3)CC12 (some centres not stated) :: > 100 µM (inactive)
2. O=C(CCCl)NN=C1NCCN1 :: > 100 µM (inactive)
3. CC1=C[C@H]([C@H]2C=C(C)C(C(N)=O)=CN2Cc2c(Cl)cccc2Cl)N(Cc2c(Cl)cccc2Cl)C=C1C(N)=O :: 45.4 µM (inactive)
4. COc1cccc(/C(Cl)=C(\C=O)c2cccc(OC)c2)c1 :: 3.97 µM (inactive)
5. CC1(C)SCc2nc3ncccc3n21 :: > 100 µM (inactive)

Below are some compounds; for each one, tell me its GI50.
1. COC(=O)[C@@]1(NC(=O)C(CC(=O)OC(C)(C)C)NC(=O)OC(C)(C)C)C[C@H]1C (some centres not stated)
2. CC/C=C/C(=O)CC(O)(C(F)(F)F)C(F)(F)F
3. O=C(NNC(=S)Nc1ccccc1)C12CC3CC(CC(C3)C1)C2
4. O=C(Nn1c(-c2ccccc2)nc2ccccc2c1=O)c1ccc(CS)cc1
5. Cc1ccc2c(c1)C/C(=C\c1ccccc1C(=O)O)C2=O
6. CCC(CC)C(=O)OC[n+]1cccc(-c2c(COC(=O)NC(C)C)c(COC(=O)NC(C)C)c3n2CCC3)c1
7. CSC(=S)Nc1cc(C)cc(C)n1
8. NNC(=O)C(=O)NN=C(C(Cl)(Cl)CO)C(Cl)(Cl)CO

Result:
1. > 100 µM (inactive)
2. 73.5 µM (inactive)
3. 6.92 µM (inactive)
4. 5.89 µM (inactive)
5. > 100 µM (inactive)
6. 38.4 µM (inactive)
7. > 31.6 µM (inactive)
8. 19.1 µM (inactive)

Below are some compounds; for each one, tell me its GI50.
1. Cc1c(S(=O)(=O)O)ccc(/N=N/c2c(O)c(C(=O)O)cc3ccccc23)c1Cl
2. CC(=O)OCCOCNC(=S)N/N=C(\C)c1cnccn1
3. CCOC(=O)c1sc2nc1CSc1sc(=S)sc1SCc1nc(sc1C(=O)OCC)-c1nc(c(C(=O)OCC)s1)CSc1sc(=S)sc1SCc1nc-2sc1C(=O)OCC
4. CC(C)=CCC/C(C)=C/CO
5. COC(=O)[C@@H]1CN(C(=O)CCc2ccccc2)C(=O)N1

Result:
1: > 100 µM (inactive); 2: 13 µM (inactive); 3: > 10 µM (inactive); 4: > 100 µM (inactive); 5: > 100 µM (inactive)

Below are some compounds; for each one, tell me its GI50.
1. C=C(Cl)C(Br)(CBr)CCC(Br)C(C)(C)Br (configuration not stated)
2. COC(=O)[C@@H]1c2c(oc3cc(CO)cc(O)c3c2=O)C=C[C@H]1O
3. O=c1[nH]ccc(CNC23CC4CC(CC(C4)C2)C3)c1O
4. NC(=O)COC(=O)c1c(Cl)nc2sccn12

Result:
1. 3.89 µM (inactive)
2. 1.69 µM (inactive)
3. 41.5 µM (inactive)
4. > 31.6 µM (inactive)
